Experiment: Solubility test by UV-Vis spectroscopy of saturated solutions
Type: physicochemical
Conditions: ethanol, organic solvent or mixture, thermodynamic from solid, ethanol, saturated solution; read-out: Solubility Ethanol
Quick reference: solubility of the listed items.

# COMPOUND, solubility [µg/mL]
data = [
    ("CC(C)(C)c1cc(NC(=O)Nc2ccc3oc(C(=O)c4cc5c(CN6CCCCC6)c(O)ccc5[nH]4)cc3c2)no1 [Compound 31a]", 2200),
    ("CC(C)(C)c1cc(NC(=O)Nc2ccc3oc(C(=O)c4cc5c(CN6CCOCC6)c(O)ccc5[nH]4)cc3c2)no1 [Compound 30b, 2,2,2-trifluoroacetate]", 2570),
    ("CN1CCN(Cc2c(O)ccc3[nH]c(C(=O)c4cc5cc(NC(=O)Nc6cc(C(C)(C)C)on6)ccc5o4)cc23)CC1 [Compound 33a]", 4670),
    ("CC(C)N1CCN(Cc2c(O)ccc3[nH]c(C(=O)c4cc5cc(NC(=O)Nc6cc(C(C)(C)C)on6)ccc5o4)cc23)CC1 [Compound 70a]", 920),
    ("CC(C)(C)c1cc(NC(=O)Nc2ccc3oc(C(=O)c4cc5c(CN6CCNCC6)c(O)ccc5[nH]4)cc3c2)no1 [Compound 55b, bis(2,2,2-trifluoroacetate)]", 1140),
    ("CC(C)(C)OC(=O)N1CCN(Cc2c(O)ccc3[nH]c(C(=O)c4cc5cc(NC(=O)Nc6cc(C(C)(C)C)on6)ccc5o4)cc23)CC1 [Compound 54a]", 900),
]

* * *

Biological target: recombinant human FLT3 (D835Y) (Homo sapiens, UniProt P36888, D835Y)
Construct: purchased Reaction Biology
Experiment: Enzymatic kinase assay FLT3 (D835Y), 10-dose IC50 mode (Reaction Biology)
Assay type: biochemical
Details: 10 μM ATP; read-out: IC50 FLT3 (D835Y)
pIC50: −log10 of the molar value.
Quick reference: pIC50 of the listed items.

# COMPOUND, pIC50
records = [
    ("CCN1CCN(Cc2c(O)ccc3[nH]c(C(=O)c4cc5cc(NC(=O)Nc6cc(C(C)(C)C)on6)ccc5o4)cc23)CC1 [Compound 69a]", 8.37),
    ("CC(C)(C)c1cc(NC(=O)Nc2ccc3oc(C(=O)c4cc5c(CN6CCNCC6)c(O)ccc5[nH]4)cc3c2)no1 [Compound 55b, bis(2,2,2-trifluoroacetate)]", 8.02),
    ("CN1CCN(Cc2c(O)ccc3[nH]c(C(=O)c4cc5cc(NC(=O)Nc6cc(C(C)(C)C)on6)ccc5o4)cc23)CC1 [Compound 33a]", 8.42),
    ("CC(C)N1CCN(Cc2c(O)ccc3[nH]c(C(=O)c4cc5cc(NC(=O)Nc6cc(C(C)(C)C)on6)ccc5o4)cc23)CC1 [Compound 70a]", 8.59),
    ("C=CC(=O)N1CCN(Cc2c(O)ccc3[nH]c(C(=O)c4cc5cc(NC(=O)Nc6cc(C(C)(C)C)on6)ccc5o4)cc23)CC1 [Compound 56b, 2,2,2-trifluoroacetate]", 7.97),
]

* * *

Test: Solubility test by UV-Vis spectroscopy of saturated solutions
Format: physicochemical
Details: ultrapure water, water, thermodynamic from solid, ultrapure water, saturated solution; read-out: Solubility Water
TEST_READOUT: solubility

# COMPOUND, VALUE
measured = [
    ("CC(C)(C)OC(=O)N1CCN(Cc2c(O)ccc3[nH]c(C(=O)c4cc5cc(NC(=O)Nc6cc(C(C)(C)C)on6)ccc5o4)cc23)CC1 [Compound 54a]", "< 100 µg/mL"),
    ("CC(C)(C)c1cc(NC(=O)Nc2ccc3oc(C(=O)c4cc5c(CN6CCOCC6)c(OC(=O)N6CCC(N7CCCCC7)CC6)ccc5[nH]4)cc3c2)no1 [Compound 38a]", "< 100 µg/mL"),
    ("CC(C)(C)c1cc(NC(=O)Nc2ccc3oc(C(=O)c4cc5c(CN6CCNCC6)c(O)ccc5[nH]4)cc3c2)no1 [Compound 55b, bis(2,2,2-trifluoroacetate)]", "< 100 µg/mL"),
    ("CC(C)(C)c1cc(NC(=O)Nc2ccc3oc(C(=O)c4cc5c(CN6CCCC6)c(OC(=O)N6CCC(N7CCCCC7)CC6)ccc5[nH]4)cc3c2)no1 [Compound 40a]", "< 100 µg/mL"),
    ("C=CC(=O)N1CCN(Cc2c(O)ccc3[nH]c(C(=O)c4cc5cc(NC(=O)Nc6cc(C(C)(C)C)on6)ccc5o4)cc23)CC1 [Compound 56b, 2,2,2-trifluoroacetate]", "220 µg/mL"),
    ("CC(C)(C)c1cc(NC(=O)Nc2ccc3oc(C(=O)c4cc5c(CN6CCCCC6)c(O)ccc5[nH]4)cc3c2)no1 [Compound 31a]", "< 100 µg/mL"),
    ("CC(C)(C)c1cc(NC(=O)Nc2ccc3oc(C(=O)c4cc5c(CN6CCCC6)c(O)ccc5[nH]4)cc3c2)no1 [Compound 32a]", "< 100 µg/mL"),
    ("CCN1CCN(Cc2c(O)ccc3[nH]c(C(=O)c4cc5cc(NC(=O)Nc6cc(C(C)(C)C)on6)ccc5o4)cc23)CC1 [Compound 69a]", "< 100 µg/mL"),
    ("CC(C)(C)c1cc(NC(=O)Nc2ccc3oc(C(=O)c4cc5c(CN6CCOCC6)c(O)ccc5[nH]4)cc3c2)no1 [Compound 30b, 2,2,2-trifluoroacetate]", "140 µg/mL"),
    ("CN1CCN(Cc2c(O)ccc3[nH]c(C(=O)c4cc5cc(NC(=O)Nc6cc(C(C)(C)C)on6)ccc5o4)cc23)CC1 [Compound 33a]", "< 100 µg/mL"),
    ("CC(C)(C)c1cc(NC(=O)Nc2ccc3oc(C(=O)c4cc5c(CN6CCCCC6)c(OC(=O)N6CCC(N7CCCCC7)CC6)ccc5[nH]4)cc3c2)no1 [Compound 39a]", "< 100 µg/mL"),
]

* * *

Molecular target: recombinant human FLT3 (D835Y) (Homo sapiens, UniProt P36888, D835Y)
Construct: purchased Reaction Biology
Experiment: Enzymatic kinase assay FLT3 (D835Y), 10-dose IC50 mode (Reaction Biology)
Type: biochemical
Details: IC50 FLT3 (D835Y) [nM], 10 μM ATP
Quick reference: IC50 of the listed items.

# COMPOUND, IC50, nM
records = [
    ("CN1CCN(Cc2c(OC(=O)N3CCC(N4CCCCC4)CC3)ccc3[nH]c(C(=O)c4cc5cc(NC(=O)Nc6cc(C(C)(C)C)on6)ccc5o4)cc23)CC1 [Compound 41a]", 2.46),
    ("CN(C)Cc1c(OC(=O)N2CCC(N3CCCCC3)CC2)ccc2[nH]c(C(=O)c3cc4cc(NC(=O)Nc5cc(C(C)(C)C)on5)ccc4o3)cc12 [Compound 42b, bis(2,2,2-trifluoroacetate)]", 0.62),
    ("CC(C)(C)c1cc(NC(=O)Nc2ccc3oc(C(=O)c4cc5c(CN6CCOCC6)c(OC(=O)N6CCC(N7CCCCC7)CC6)ccc5[nH]4)cc3c2)no1 [Compound 38b, bis(2,2,2-trifluoroacetate)]", 6.63),
    ("CN1CCN(Cc2c(OC(=O)N3CCC(N4CCCCC4)CC3)ccc3[nH]c(C(=O)c4cc5cc(NC(=O)Nc6cc(C(C)(C)C)on6)ccc5o4)cc23)CC1 [Compound 41b, tris(2,2,2-trifluoroacetate)]", 1.71),
]
